Readings of R3 Selectivity for the listed binders
- target-under-test: T1, PACAP-R3 (human, UniProt P41587 24-438)
- T1 sequence (looked up): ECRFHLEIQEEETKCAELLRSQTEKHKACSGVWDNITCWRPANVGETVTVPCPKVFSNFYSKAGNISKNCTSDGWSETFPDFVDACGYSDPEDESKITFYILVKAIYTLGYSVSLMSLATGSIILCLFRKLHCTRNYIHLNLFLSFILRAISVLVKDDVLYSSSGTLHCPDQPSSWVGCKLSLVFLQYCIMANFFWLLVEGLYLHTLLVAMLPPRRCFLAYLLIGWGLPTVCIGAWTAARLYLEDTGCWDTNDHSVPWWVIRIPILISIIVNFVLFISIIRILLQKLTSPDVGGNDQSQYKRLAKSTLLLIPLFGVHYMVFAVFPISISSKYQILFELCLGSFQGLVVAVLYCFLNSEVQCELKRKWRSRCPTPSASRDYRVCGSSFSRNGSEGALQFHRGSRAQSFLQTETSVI
- assay-name: cell-based or functional assay
No end group written: not given here.

binder	measurement-unit	limit-qualifier	R3 Selectivity
HSDGIFTDSYSRYRKKMAVKKYLAAVL-NH2 [PAC16]	ratio	=	1
HSDAVFTDNYTRLRKQMAGKKYLNSIKNRI [rR3P175]	ratio	=	180
HSDKIFTDSYSRYRKQMAVKKYLAAVL-NH2 [PAC4]	ratio	=	6
HSDAVFTDNYTRLRKQMAKKKYLNSIRNRI [rR3P191]	ratio	>	80
HSDAVFTDNYTRLRKQMARKKYLNSIRNRI [rR3P192]	ratio	=	60
HSDAVFTDNYTRLRKQMAAKKYLNSIKNKV [R3P169]	ratio	=	300
HSDGIFTDSYSRKRKQMAVKKYLAAVL-NH2 [PAC13]	ratio	=	6
